Give protein stability index for every item shown.
B1: SNAP91 (parent)
chain: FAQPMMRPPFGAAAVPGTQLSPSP

# Variants of: B1
# Assay: protein stability index of a GFP-peptide fusion (GPS, HEK-293T) (PSI 1-6); higher = more stable;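 also: lentivirally expressed fusions sorted by FACS into six bins by GFP to DsRed ratio, PSI derived from sequencing read proportions per bin multiplied by bin number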
# Test conditions: c terminus: a fixed tail appended
Please reply with the value in numeric form only.

Qu. Which protein stability index value is on record for A14R ?
Ans. 3.31

Qu. Which protein stability index value is on record for S23K ?
Ans. 3.21

Qu. Which protein stability index value is on record for P9C ?
Ans. 3.06

Qu. Which protein stability index value is on record for F10D ?
Ans. 4.52

Qu. Which protein stability index value is on record for Q3N ?
Ans. 2.98

Qu. Which protein stability index value is on record for A14H ?
Ans. 2.99

Qu. Which protein stability index value is on record for P8C ?
Ans. 2.39

Qu. Which protein stability index value is on record for G17D ?
Ans. 3.04

Qu. Which protein stability index value is on record for P22C ?
Ans. 2.67

Qu. Which protein stability index value is on record for M6R ?
Ans. 3.1

Qu. Which protein stability index value is on record for G11K ?
Ans. 3.55

Qu. Which protein stability index value is on record for P16T ?
Ans. 3.37

Qu. Which protein stability index value is on record for M6S ?
Ans. 3.1

Qu. Which protein stability index value is on record for Q3D ?
Ans. 2.12

Qu. Which protein stability index value is on record for R7G ?
Ans. 2.23

Qu. Which protein stability index value is on record for Q19H ?
Ans. 3.08

Qu. Which protein stability index value is on record for A14E ?
Ans. 3.01

Qu. Which protein stability index value is on record for G17R ?
Ans. 3.89

Qu. Which protein stability index value is on record for G17E ?
Ans. 2.71

Qu. Which protein stability index value is on record for M5E ?
Ans. 3.61

Qu. Which protein stability index value is on record for M5D ?
Ans. 3.52

Qu. Which protein stability index value is on record for P9T ?
Ans. 3.59

Qu. Which protein stability index value is on record for Q19N ?
Ans. 3.17

Qu. Which protein stability index value is on record for Q3V ?
Ans. 3.45

Qu. Which protein stability index value is on record for P24I ?
Ans. 3.2

Qu. Which protein stability index value is on record for P22H ?
Ans. 3.14

Qu. Which protein stability index value is on record for L20G ?
Ans. 3.6

Qu. Which protein stability index value is on record for R7F ?
Ans. 1.55

Qu. Which protein stability index value is on record for R7C ?
Ans. 2.3

Qu. Which protein stability index value is on record for P8Q ?
Ans. 3.36

Qu. Which protein stability index value is on record for Q3R ?
Ans. 3.42

Qu. Which protein stability index value is on record for T18D ?
Ans. 2.6

Qu. Which protein stability index value is on record for F1M ?
Ans. 4.26

Qu. Which protein stability index value is on record for F1D ?
Ans. 4.55

Qu. Which protein stability index value is on record for V15T ?
Ans. 3.5

Qu. Which protein stability index value is on record for T18N ?
Ans. 2.87

Qu. Which protein stability index value is on record for P9S ?
Ans. 3.75

Qu. Which protein stability index value is on record for A14Y ?
Ans. 3.04

Qu. Which protein stability index value is on record for R7W ?
Ans. 1.7

Qu. Which protein stability index value is on record for M6T ?
Ans. 3.68

Qu. Which protein stability index value is on record for L20P ?
Ans. 3.2

Qu. Which protein stability index value is on record for P4H ?
Ans. 2.75

Qu. Which protein stability index value is on record for P8N ?
Ans. 2.98

Qu. Which protein stability index value is on record for P9G ?
Ans. 3.45

Qu. Which protein stability index value is on record for M6D ?
Ans. 3.46

Qu. Which protein stability index value is on record for S23N ?
Ans. 3.29

Sourced from the supplement of paper PMC10567573
